# Tested system: Proteasome subunit beta type-5 (Homo sapiens, UniProt P28074)
# Sequence (P28074 whole entry): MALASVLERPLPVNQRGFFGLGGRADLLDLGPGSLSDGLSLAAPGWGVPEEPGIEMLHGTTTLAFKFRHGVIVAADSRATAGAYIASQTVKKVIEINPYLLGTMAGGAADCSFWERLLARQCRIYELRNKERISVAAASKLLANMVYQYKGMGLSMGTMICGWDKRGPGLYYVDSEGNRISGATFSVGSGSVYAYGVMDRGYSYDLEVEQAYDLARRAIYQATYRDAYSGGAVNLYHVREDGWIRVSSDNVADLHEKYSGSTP
# Test method notes: 20S proteasome chymotrypsin-like inhibition assay
Readout label: IC50 (nM)

[
  {
    "Compound": "CC(C)C[C@H](NC(=O)CC(NC(=O)c1ccc(F)cc1)c1ccccc1)C(=O)N[C@@H](CC(C)C)C(=O)[C@@]1(C)CO1 (some centres undefined)",
    "Tested system": "Proteasome subunit beta type-5 (Homo sapiens, UniProt P28074)",
    "Unit annotation": "nM",
    "Recorded value": 970
  },
  {
    "Compound": "COc1ccc(C(=O)NC(CC(=O)N[C@@H](CC(C)C)C(=O)N[C@@H](CC(C)C)C(=O)[C@@]2(C)CO2)c2ccccc2)cc1 (some centres undefined)",
    "Tested system": "Proteasome subunit beta type-5 (Homo sapiens, UniProt P28074)",
    "Unit annotation": "nM",
    "Recorded value": 1010
  },
  {
    "Compound": "CC(C)C[C@H](NC(=O)CC(NC(=O)c1cccnc1)c1ccccc1)C(=O)N[C@@H](CC(C)C)C(=O)[C@@]1(C)CO1 (some centres undefined)",
    "Tested system": "Proteasome subunit beta type-5 (Homo sapiens, UniProt P28074)",
    "Unit annotation": "nM",
    "Recorded value": 1850
  },
  {
    "Compound": "CC(C)C[C@H](NC(=O)CC(NC(=O)c1ccccc1)c1ccccc1)C(=O)N[C@@H](CC(C)C)C(=O)[C@@]1(C)CO1 (some centres undefined)",
    "Tested system": "Proteasome subunit beta type-5 (Homo sapiens, UniProt P28074)",
    "Unit annotation": "nM",
    "Recorded value": 1420
  }
]
